Source listed as patent US7943606B2.

- System: CaOV-3 cells
- Test Details: Viability of CaOV-3 ovarian cancer cells (MTT assay)
- Format: cell-based, human
- Measurement Parameters: Homo sapiens, Caov-3; 10,000 cells per well (25-35% confluent), 72 hours, MTT; read-out: IC50 values, Antiproliferative, CaOV-3
Property Measured: IC50 (µM)

// solved cases for IC50 follow
Enquiry: Query (compound): CC[N+](C)(CC)CC/C=C1/c2ccccc2Sc2ccc(C)cc21 [CCcompound23] ; field requested: IC50
Return: 14

Enquiry: Dear colleague, I am looking for the recorded IC50 of the following compound: CC[N+](C)(C)CC/C=C1/c2ccccc2Sc2ccc(C)cc21 [CCcompound22]
Return: 61

Enquiry: I would be grateful if you could share the reported IC50 for CC[N+](C)(CC)CCOCc1ccc2sc3ccccc3c(=O)c2c1.[I-] [CCDTHT] .
Return: 38

Enquiry: Bench note: what IC50 did CC[N+](CC)(CC)CC/C=C1/c2ccccc2Sc2ccc(C)cc21 [CCcompound25] show?
Return: 47

P. Cc1ccc2c(c1)/C(=C\CC[N+](C)(C)C)c1ccccc1S2 [CCcompound21]
Q. C=CC[N+](C)(C)CC/C=C1/c2ccccc2Sc2ccc(C)cc21 [CCcompound24]
Enquiry: Looking at recorded values for IC50, does P or Q come in lower? Your choice should be expressed through its label.
Return: P
(P: 32 µM, Q: 69 µM)
